Listing of recorded protein stability index by entry.
B1: ZNF207 (parent)
chain: CHICHKKLYTGPGLAIHCMQVHKE

Variants of: B1
experiment.description: protein stability index of a GFP-peptide fusion (GPS, HEK-293T) (PSI 1-6); higher = more stable;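 note: lentivirally expressed fusions sorted by FACS into six bins by GFP to DsRed ratio, PSI derived from sequencing read proportions per bin multiplied by bin number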
applied.conditions: c terminus: a fixed tail appended

sequence.code	protein stability index
CHICHKKLYTGPGLAIHSMQVHKE [C18S]	3.01
CHICHKKTYTGPGLAIHCMQVHKE [L8T]	3.02
CHLCHKKLYTGPGLAIHCMQVHKE [I3L]	3.09
CHICHKKLYTGPGLAIHCVQVHKE [M19V]	2.94
